# maps each entry to its absolute recovery
- assay.protocol: absolute recovery over vacuum-assisted evaporative concentration; higher = better recovery
- test.settings: wastewater effluent; enrichment method: VEC
Entry rule: numbers only, all in %.

compound: CC[N+]1([O-])CCCC1CNC(=O)c1cc(S(=O)(=O)CC)c(N)cc1OC (centres undefined) [Amisulpride-N-Oxide]
value: 105

Now for another entry.
-- ask Which absolute recovery value belongs to CC(CCC(=O)[O-])C1CCC2C3C(O)CC4CC(O)CCC4(C)C3CCC12C (centres undefined) ?
-- reply 97

---

- assay.protocol: absolute recovery over mixed-bed multilayer solid-phase extraction; higher = better recovery
- test.settings: nanopure water; enrichment method: SPE
readout.label: absolute recovery (%)
# output: bare number, implied unit %

# example entries with known answers
molecule: CCC(CC)OC1C=C(C(=O)[O-])CC([NH3+])C1NC(C)=O (centres undefined)
absolute recovery [%]: 75.9

molecule: N#CCNC(=O)c1cnccc1C(F)(F)F
absolute recovery [%]: 96.3

molecule: O=C1NCCN1Cc1ccc(Cl)nc1
absolute recovery [%]: 117

molecule: CSc1nc2cc(Oc3cccc(Cl)c3Cl)c(Cl)cc2[nH]1
absolute recovery [%]: 59.4

molecule: CC(=O)Nc1ccc(S(=O)(=O)[N-]c2ncccn2)cc1
absolute recovery [%]: 98.6

-- ask I have this molecule here, "Cn1nnc2ccccc21" , and I need its recorded absolute recovery.
-- reply 89.4

-- ask What would you report for "Nc1c(I)c(N)c(I)c(C(=O)[O-])c1I" ?
-- reply 95.4

-- ask What do you have for "CCCOCC(=Nc1ccc(Cl)cc1C(F)(F)F)n1ccnc1" ?
-- reply 85.9

-- ask Now consider "CN1CCN(C)C1=O" and answer again.
-- reply 26

---

- assay.protocol: absolute recovery over vacuum-assisted evaporative concentration; higher = better recovery
- test.settings: wastewater influent; enrichment method: VEC
readout.label: absolute recovery (%)
# output: bare number, implied unit %

The examples below pair each entry with its known result.
compound: CCCC(CCC)(C(=O)[O-])C(=O)O
absolute recovery / %: 109

compound: CC(=O)OC1C(C)OC(n2cc(F)c(N)nc2=O)C1OC(C)=O (stereo unspecified)
absolute recovery / %: 91.8

compound: CCCOc1nc2ccc(I)cc2c(=O)n1CCC
absolute recovery / %: 62.4

compound: CC12CC3CC(C)(C1)CC([NH3+])(C3)C2 [Memantine]
absolute recovery / %: 114

-- ask Reported absolute recovery for "[NH3+]C12CC3CC(CC(C3)C1)C2" : what is it?
-- reply 114

-- ask Query "COP(=O)(OC)OC=C(Cl)Cl" next
-- reply 39.6

-- ask Then "Nc1ccc(S(=O)(=O)[O-])cc1" ?
-- reply 96.5

-- ask Same question for C[N+](C)([O-])CCC(c1ccccc1)c1ccccn1 (stereo unspecified) [Pheniramine-N-oxide] please.
-- reply 94.2

-- ask Can you check O=C1CCC2(O)C3Cc4ccc(O)c5c4C2(CC[NH+]3CC2CC2)C1O5 (stereo unspecified) [Naltrexon] next?
-- reply 99

-- ask Continue with "N#Cc1cc(Br)c([O-])c(Br)c1"
-- reply 90.3

-- ask Same question, "Cc1cc(C(C)(C)C)cc(C)c1CC1=[NH+]CCN1" this time
-- reply 106

-- ask Then this compound: O=C(NCC(O)CO)c1c(I)c(C(=O)NCC(O)CO)c(I)c(N(CCO)C(=O)CO)c1I (stereo unspecified)
-- reply 86.5

-- ask Then what about the compound COc1ccc2c(c1)C13CCCCC1C(C2)[NH+](C)CC3 (stereo unspecified) ?
-- reply 107

-- ask For "O=C(NC(=O)c1c(F)cccc1F)Nc1ccc(Cl)cc1" then?
-- reply 147

-- ask Param item: "CS(=O)(=O)c1ccc(C(=O)[O-])c(Cl)c1"
-- reply 109

-- ask Also, COc1ccc2c(c1OC)C(=O)OC2C1c2c(cc3c(c2OC)OCO3)CC[NH+]1C (stereo unspecified) please.
-- reply 89.8

-- ask Then CC12CCC(=O)C=C1CCC1C2C(O)CC2(C)C(C(=O)CO)CCC12 (stereo unspecified) ?
-- reply 55.6

-- ask Try O=C(NCc1ncc(C(F)(F)F)cc1Cl)c1c(Cl)cccc1Cl [Fluopicolide] next.
-- reply 109

-- ask Here is the next compound: CCC1OC(=O)C(C)C(OC2CC(C)(OC)C(O)C(C)O2)C(C)C(OC2OC(C)CC([NH2+]C)C2O)C(C)(O)CC(C)C[NH+](C)C(C)C(O)C1(C)O (stereo unspecified)
-- reply 94.9

-- ask Also, CC1(C)CC1C(=O)NC(=CCCCCSCC([NH3+])C(=O)[O-])C(=O)[O-] (stereo unspecified) please.
-- reply 80.5

-- ask And "COc1ccc2c(c1)c(CC(=O)OCC(=O)[O-])c(C)n2C(=O)c1ccc(Cl)cc1" ?
-- reply 99.4

---

- assay.protocol: absolute recovery over mixed-bed multilayer solid-phase extraction; higher = better recovery
- test.settings: surface water; enrichment method: SPE
readout.label: absolute recovery
Hey, just the number and the unit after it is fine.

compound: CCC(C)(C)C(=O)OC1=C(c2ccc(Cl)cc2Cl)C(=O)OC12CCCCC2
absolute recovery: 12.2%

compound: CC(C)(C)C(O)C(Oc1ccc(Cl)cc1)n1cncn1 (centres undefined)
absolute recovery: 83.6%

compound: COc1cccc2c1C(=O)c1c(O)c3c(c(O)c1C2=O)CC(O)(C(=O)CO)CC3OC1CC([NH3+])C(O)C(C)O1 (centres undefined)
absolute recovery: 19.3%

compound: CC(C)(C)[NH2+]CC(O)COc1nsnc1N1CCOCC1 (centres undefined)
absolute recovery: 83.1%

compound: C[NH+](C)CCOC(C)(c1ccccc1)c1ccccn1 (centres undefined)
absolute recovery: 91.3%

-- ask Record request: absolute recovery value, item "CON(C)C(=O)Nc1ccc(Cl)cc1"
-- reply 92.4%

-- ask Try this compound too: C[NH2+]CC(c1ccc(OC)cc1)C1(O)CCCCC1 (centres undefined)
-- reply 82.5%

-- ask Another compound: "Cc1ncc([N+](=O)[O-])n1CCO"
-- reply 91.3%

-- ask Further, for CC(C)(C)C(=O)C(Oc1ccc(Cl)cc1)n1ccnc1 (centres undefined) ?
-- reply 96.1%

---

- assay.protocol: LC retention time (Atlantis T3, 5-95% MeOH gradient, 0.1% formic acid); higher = more retained / less polar
Reported LC retention time values follow for various compounds
Hi! Could you send only the number? It should be in min, unit omitted.

Consider the following illustrative entries.
compound: CCOCN(C(=O)CCl)c1c(C)cccc1CC
LC retention time / min: 20.4
--
compound: CC(=O)Nc1nnc(S([NH-])(=O)=O)s1 [Acetazolamide]
LC retention time / min: 10.5
--
compound: CC=CC(=O)N(CC)C(CC)C(=O)N(C)C (centres undefined) [Crotethamide]
LC retention time / min: 15.9
--
compound: Cc1cccc(Nc2ccccc2C(=O)[O-])c1C
LC retention time / min: 21.9
--
compound: Clc1ccc(C(c2ccccc2)N2CC[NH2+]CC2)cc1 (centres undefined) [1-[(4-Chlorophenyl)phenylmethyl]piperazine]
LC retention time / min: 16.2
--
compound: C[N+](C)([O-])CCC(c1ccccc1)c1ccccn1 (centres undefined) [Pheniramine-N-oxide]
LC retention time / min: 11.6
--
compound: CCC1(c2ccccc2)C(=O)NCNC1=O
LC retention time / min: 14.5
--
compound: CC[N+]([O-])(CC)CC(=O)Nc1c(C)cccc1C [Lidocaine-N-Oxide]
LC retention time / min: 12.2

-- ask State the recorded LC retention time for this entry: CC1(C)SC(CNC(=O)C([NH3+])c2ccc(O)cc2)[NH2+]C1C(=O)[O-] (centres undefined)
-- reply 9.5

---

- assay.protocol: absolute recovery over mixed-bed multilayer solid-phase extraction; higher = better recovery
- test.settings: nanopure water; enrichment method: SPE
readout.label: absolute recovery (%)
Enter your answer as a number in %; do not include the unit.

molecule: CCCC1COC(Cn2cncn2)(c2ccc(Cl)cc2Cl)O1 (configuration not stated)
readout.label: absolute recovery
value: 97.2

molecule: Cc1cc(=O)n(-c2ccccc2)n1C [Phenazon (=Antipyrin)]
readout.label: absolute recovery
value: 83.8

molecule: Nc1ccn(C2OC(CO)C(O)C2(F)F)c(=O)n1 (configuration not stated)
readout.label: absolute recovery
value: 86.7

molecule: CC1(C(=O)Nc2ccc(O)c(Cl)c2Cl)CCCCC1
readout.label: absolute recovery
value: 102

molecule: CC(O)C(=O)Nc1c(I)c(C(=O)NC(CO)CO)c(I)c(C(=O)NC(CO)CO)c1I (configuration not stated)
readout.label: absolute recovery
value: 59.6

molecule: O=C1Nc2ccc(Cl)cc2C(c2ccccc2)=NC1O (configuration not stated)
readout.label: absolute recovery
value: 99.5

-- ask # lookup: absolute recovery of C[NH+](C)CCCC1(c2ccc(F)cc2)OCc2cc(C#N)ccc21 (configuration not stated)
-- reply 94.1

-- ask # repeat for "Cc1cc(C)nc(NC(=O)[N-]S(=O)(=O)c2ccccc2C(=O)OC2COC2)n1"
-- reply 107

-- ask // next record "Oc1cc(Cl)ccc1Oc1ccc(Cl)cc1Cl"
-- reply 97.2

-- ask Same thing, different molecule: COC(=O)C(Cc1ccccc1)NC(=O)C([NH3+])CC(=O)[O-] (configuration not stated)
-- reply 50

-- ask How about CCC1OC(=O)C(C)C(OC2CC(C)(OC)C(O)C(C)O2)C(C)C(OC2OC(C)CC([N+](C)(C)[O-])C2O)C(C)(OC)CC(C)C(=O)C(C)C(O)C1(C)O (configuration not stated) [Clarithromycin-N-Oxide] ?
-- reply 91.1

Data origin: the supplement of paper PMC6470124
